Molecular target: T1, Anti-CD28 Fab (SEQ ID NOs: 696, 697)
T1 construct: In the phage ELISA the Fab was biotinylated and captured on neutravidin coated plates
T1 sequence (VH, as listed by the source, chain 1 of 2): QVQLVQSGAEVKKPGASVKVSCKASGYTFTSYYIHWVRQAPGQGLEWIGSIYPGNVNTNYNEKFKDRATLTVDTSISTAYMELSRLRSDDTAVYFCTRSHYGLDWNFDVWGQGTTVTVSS
T1 sequence (VL, as listed by the source, chain 2 of 2): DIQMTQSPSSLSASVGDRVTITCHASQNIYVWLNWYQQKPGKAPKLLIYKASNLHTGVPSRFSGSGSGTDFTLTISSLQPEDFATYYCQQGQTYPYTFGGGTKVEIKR
Assay: phage ELISA; captured anti-CD28 Fab pre-incubated with CD28 antigen as competitor, anti-M13 HRP detection;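 note: crude clonal phage supernatants screened by ELISA, with wells pre-incubated with CD28 antigen in blocking buffer, compared against wells given blocking buffer alone as control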
quantity: Anti-CD28 Fab signal in the presence of CD28 (phage binding ELISA)

Sample answers from the record:
binder="YCSEHQIIFIQKCL (Tested as clonal phage supernatant; not shown: pIII coat protein of the bacteriophage to which the peptide is fused) [Phage-1104 (Peptide-87 library clone, SEQ ID NO: 1420)]" recorded_result=0.08
binder="YCEGHLPEYMIKCL (Tested as clonal phage supernatant; not shown: pIII coat protein of the bacteriophage to which the peptide is fused) [Phage-1108 (Peptide-87 library clone, SEQ ID NO: 1424)]" recorded_result=0.06

Suppose we examine the binder YCDGHSAEYIAKCL (Tested as clonal phage supernatant; not shown: pIII coat protein of the bacteriophage to which the peptide is fused) [Phage-1112 (Peptide-87 library clone, SEQ ID NO: 1428)] ; what Anti-CD28 Fab signal in the presence of CD28 (phage binding ELISA) value has been reported?
0.05

Same question, YCEGHSAVYMSKCL (Tested as clonal phage supernatant; not shown: pIII coat protein of the bacteriophage to which the peptide is fused) [Phage-1113 (Peptide-87 library clone, SEQ ID NO: 1429)] this time
0.06

Moving on to YCDGHLPLYMQKCF (Tested as clonal phage supernatant; not shown: pIII coat protein of the bacteriophage to which the peptide is fused) [Phage-1102 (Peptide-87 library clone, SEQ ID NO: 1418)]
0.1

Next record, please: YCAGHLPMYMQKCL (Tested as clonal phage supernatant; not shown: pIII coat protein of the bacteriophage to which the peptide is fused) [Phage-1103 (Peptide-87 library clone, SEQ ID NO: 1419)]
0.08
